- experimental-system: Jak2 (UniProt O60674)
- Sequence (O60674 whole entry, looked up): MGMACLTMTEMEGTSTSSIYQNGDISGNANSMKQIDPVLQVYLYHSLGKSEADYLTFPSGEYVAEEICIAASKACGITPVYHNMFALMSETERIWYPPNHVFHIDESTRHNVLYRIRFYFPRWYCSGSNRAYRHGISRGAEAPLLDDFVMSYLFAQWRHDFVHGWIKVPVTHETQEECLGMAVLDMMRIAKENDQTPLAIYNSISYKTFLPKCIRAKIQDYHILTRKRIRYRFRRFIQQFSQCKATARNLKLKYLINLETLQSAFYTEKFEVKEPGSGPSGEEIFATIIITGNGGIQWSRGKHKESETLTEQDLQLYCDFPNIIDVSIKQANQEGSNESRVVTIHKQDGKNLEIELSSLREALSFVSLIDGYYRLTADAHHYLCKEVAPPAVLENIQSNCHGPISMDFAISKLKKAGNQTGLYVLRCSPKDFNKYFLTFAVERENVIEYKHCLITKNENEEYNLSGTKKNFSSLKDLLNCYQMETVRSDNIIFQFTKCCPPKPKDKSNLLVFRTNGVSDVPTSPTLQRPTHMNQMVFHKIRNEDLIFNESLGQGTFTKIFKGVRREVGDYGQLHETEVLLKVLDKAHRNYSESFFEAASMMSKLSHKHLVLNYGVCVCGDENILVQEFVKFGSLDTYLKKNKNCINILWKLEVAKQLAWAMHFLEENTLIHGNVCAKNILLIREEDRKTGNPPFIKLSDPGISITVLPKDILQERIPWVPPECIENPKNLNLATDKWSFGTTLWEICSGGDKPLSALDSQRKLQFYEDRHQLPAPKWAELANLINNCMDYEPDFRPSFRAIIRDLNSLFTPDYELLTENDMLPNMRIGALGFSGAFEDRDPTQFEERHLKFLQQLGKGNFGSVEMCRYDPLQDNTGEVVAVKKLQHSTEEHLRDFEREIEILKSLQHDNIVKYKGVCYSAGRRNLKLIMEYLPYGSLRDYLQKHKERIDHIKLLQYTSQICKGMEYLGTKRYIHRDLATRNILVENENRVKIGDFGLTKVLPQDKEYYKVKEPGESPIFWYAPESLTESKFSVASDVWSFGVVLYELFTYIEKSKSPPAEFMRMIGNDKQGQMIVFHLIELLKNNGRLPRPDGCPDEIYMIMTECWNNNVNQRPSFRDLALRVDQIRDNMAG
- assay-protocol: phosphorylation enrichment, bacterial display (enrichment ratio); higher = better substrate or ligand; peptides without Tyr show the background;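 further: 11-residue human phosphosite peptides and single-mutation variants displayed on the E. coli surface, counted by deep sequencing, each peptide's frequency after selection divided by its frequency in the unselected input library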;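 further: frequency after pTyr selection over input frequency; kinase dosed for 20-30% of maximal phosphorylation in three min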
observed-property: phosphorylation enrichment

> print(dat)
                        sequence.chain    experimental.system           observed.property  reported.value
 1        KKIMGYSIRTI [IDS_Y490_I485K]  Jak2 (UniProt O60674)  phosphorylation enrichment           0.537
 2       TSSAGYRRTPS [ABI1_Y333_G331A]  Jak2 (UniProt O60674)  phosphorylation enrichment           0.476
 3          IPTPAYQSSPA [PDCD6IP_Y727]  Jak2 (UniProt O60674)  phosphorylation enrichment           0.541
 4     DSIRDYEDGTE [CLNS1A_Y214_M218T]  Jak2 (UniProt O60674)  phosphorylation enrichment            1.35
 5       IWDLKYTIENP [SND1_Y178_R174W]  Jak2 (UniProt O60674)  phosphorylation enrichment            1.02
 6  LIFVSYDDWDF [GRIN2A_Y281_S278F_YF]  Jak2 (UniProt O60674)  phosphorylation enrichment            4.29
 7      FMYKVYSDPQP [FGFR1_Y280_C277Y]  Jak2 (UniProt O60674)  phosphorylation enrichment           0.819
 8       SVIVPYEPPEV [TP53_Y220_V217I]  Jak2 (UniProt O60674)  phosphorylation enrichment            1.08
 9        VTGWGYRKLRE [F11_Y521_D526E]  Jak2 (UniProt O60674)  phosphorylation enrichment           0.579
10   AIIEEYLHLSD [EIF4G1_Y1253_N1257S]  Jak2 (UniProt O60674)  phosphorylation enrichment            1.19
11      RHTRSYDFTEG [FGF7_Y56_M59T_YF]  Jak2 (UniProt O60674)  phosphorylation enrichment           0.444
12         ALKKPYSVLYK [RPF2_Y59_G60S]  Jak2 (UniProt O60674)  phosphorylation enrichment           0.467
13  LAARFYNWVCF [FLT4_Y1231_S1235C_YF]  Jak2 (UniProt O60674)  phosphorylation enrichment            2.59
14          PADSGYPAYLG [ATP6V1A_Y374]  Jak2 (UniProt O60674)  phosphorylation enrichment           0.823
15     STEAIYWRYSK [SH3PXD2B_Y42_R43W]  Jak2 (UniProt O60674)  phosphorylation enrichment            1.26
16          QEALEYFMKQM [PIK3CA_Y1038]  Jak2 (UniProt O60674)  phosphorylation enrichment            1.49
17           LLLLFYVVRFC [MPZ_Y177_YF]  Jak2 (UniProt O60674)  phosphorylation enrichment           0.664
18           DLNATYRTIQG [U2SURP_Y634]  Jak2 (UniProt O60674)  phosphorylation enrichment           0.609
19            MYQVQYNSSVD [LRFN1_Y458]  Jak2 (UniProt O60674)  phosphorylation enrichment           0.721
20             EEGENYQKGER [CHGB_Y173]  Jak2 (UniProt O60674)  phosphorylation enrichment           0.963
21       DDYDLYGGEKF [PTPN11_Y66_Y62D]  Jak2 (UniProt O60674)  phosphorylation enrichment           0.963
22    ITQRAYRRHLL [SCN1A_Y1926_I1922T]  Jak2 (UniProt O60674)  phosphorylation enrichment           0.573
23             EDGCIYPATIA [SMN1_Y109]  Jak2 (UniProt O60674)  phosphorylation enrichment             1.1
24      YSKTQYNQVPR [CXADR_Y318_S323R]  Jak2 (UniProt O60674)  phosphorylation enrichment           0.451
25    VSFGEYRFRSV [CFTR_Y515_D513G_YF]  Jak2 (UniProt O60674)  phosphorylation enrichment           0.574
26            QEIATYRRLLE [KRT14_Y415]  Jak2 (UniProt O60674)  phosphorylation enrichment           0.693
27            HTVVSYAEVRA [CLOCK_Y378]  Jak2 (UniProt O60674)  phosphorylation enrichment           0.779
28              KVASVYEAPGF [NT5C_Y65]  Jak2 (UniProt O60674)  phosphorylation enrichment           0.609
29              HVIKLYGACSQ [RET_Y791]  Jak2 (UniProt O60674)  phosphorylation enrichment             1.6
